Test: Clearance in male dog at 1 to 2 mg/kg, iv
Assay type: ADME, organism-based, Canis lupus familiaris
Parameters: dose 1-2 mg/kg, route intravenous
Settings: in vivo
ASSAY METRIC: clearance (mL/min/kg)
One number for each entry, in mL/min/kg.

CCN(C(=O)Cc1ccc(S(C)(=O)=O)cc1)C1CCN(CC[C@@H](c2cc(F)cc(F)c2)N2CCN(S(C)(=O)=O)CC2)CC1    12

Which measured clearance value corresponds to CCN(C(=O)Cc1ccc(S(C)(=O)=O)cc1)C1CCN(CC[C@@H](c2cc(F)cc(F)c2)C2CCN(S(C)(=O)=O)CC2)CC1 ?
15

====

Assay: Apparent permeability from basal to apical side of human Caco2 cells at 10 uM
Assay type: ADME, cell-based
Conditions: Caco-2
ASSAY METRIC: Papp B→A at 10 µM (×10⁻⁶ cm/s)
Give bare numbers, in ×10⁻⁶ cm/s.

Reported Papp B→A at 10 µM for CCN(C(=O)Cc1ccc(S(C)(=O)=O)cc1)C1CCN(CC[C@@H](c2cc(F)cc(F)c2)C2CCN(S(C)(=O)=O)CC2)CC1 : what is it?
9.2

====

Assay: Apparent permeability from apical to basal side of human Caco2 cells at 100 uM
Format: ADME, cell-based
Settings: Caco-2
ASSAY METRIC: Papp A→B at 100 µM (×10⁻⁶ cm/s)
One number for each entry, in ×10⁻⁶ cm/s.

Reported Papp A→B at 100 µM for CCN(C(=O)Cc1ccc(S(C)(=O)=O)cc1)C1CCN(CC[C@@H](c2cc(F)cc(F)c2)C2CCN(S(C)(=O)=O)CC2)CC1 [AZD5672] : what is it?
1.4

====

Biological target: C-C chemokine receptor type 5 (Homo sapiens, UniProt P51681)
Sequence (P51681 whole entry): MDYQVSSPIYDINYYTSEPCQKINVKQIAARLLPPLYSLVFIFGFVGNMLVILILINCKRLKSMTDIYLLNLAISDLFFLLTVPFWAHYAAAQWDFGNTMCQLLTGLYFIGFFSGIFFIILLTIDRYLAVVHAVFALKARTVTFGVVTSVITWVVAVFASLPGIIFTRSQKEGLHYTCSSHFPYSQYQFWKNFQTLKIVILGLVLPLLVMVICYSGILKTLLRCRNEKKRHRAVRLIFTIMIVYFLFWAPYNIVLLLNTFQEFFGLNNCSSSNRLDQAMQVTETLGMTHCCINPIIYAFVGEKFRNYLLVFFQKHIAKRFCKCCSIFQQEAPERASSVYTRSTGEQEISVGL
Assay: Displacement of [125I]MIP-1alpha from human recombinant CCR5 expressed in CHO cells
pIC50: −log10 of the molar value.
Assign Satisfied whenever pIC50 does not fall below 8; assign Not satisfied whenever it does.

CCN(C(=O)Cc1ccc(S(C)(=O)=O)cc1)C1CCN(CC[C@@H](c2cc(F)cc(F)c2)N2CCN(S(C)(=O)=O)CC2)CC1    Satisfied
CCN(C(=O)Cc1ccc(S(C)(=O)=O)cc1)C1CCN(CCC(c2ccccc2)N2CCC(C(C)=O)CC2)CC1 (racemic)    Not satisfied
CCN(C(=O)Cc1ccc(S(C)(=O)=O)cc1)C1CCN(CCC(c2ccccc2)C2CCN(C(C)=O)CC2)CC1 (racemic)    Not satisfied
CCN(C(=O)Cc1ccc(S(C)(=O)=O)cc1)C1CCN(CCC(c2ccccc2)N2CCN(S(C)(=O)=O)CC2)CC1 (racemic)    Not satisfied
CCN(C(=O)Cc1ccc(S(C)(=O)=O)cc1)C1CCN(CC[C@@H](c2cccc(C)c2)C2CCN(S(C)(=O)=O)CC2)CC1    Satisfied
CCN(C(=O)Cc1ccc(S(C)(=O)=O)cc1)C1CCN(CC[C@@H](c2cc(Cl)cc(Cl)c2)C2CCN(S(C)(=O)=O)CC2)CC1    Satisfied
CCN(C(=O)Cc1ccc(S(C)(=O)=O)cc1)C1CCN(CC[C@@H](c2cccc(OC)c2)C2CCN(S(C)(=O)=O)CC2)CC1    Satisfied
CCN(C(=O)Cc1ccc(S(C)(=O)=O)cc1)C1CCN(CC[C@@H](c2cc(C)cc(C)c2)C2CCN(S(C)(=O)=O)CC2)CC1    Satisfied
CCN(C(=O)Cc1ccc(S(C)(=O)=O)cc1)C1CCN(CC[C@@H](c2cc(F)cc(F)c2)C2CCN(S(C)(=O)=O)CC2)CC1 [AZD5672]    Satisfied
CCN(C(=O)Cc1ccc(S(C)(=O)=O)cc1)C1CCN(CCC(c2ccccc2)N2CCN(c3ccccc3)CC2)CC1 (racemic)    Satisfied

Reported pIC50 reaches at least 8 for CCN(C(=O)Cc1ccc(S(C)(=O)=O)cc1)C1CCN(CCC(c2ccccc2)N2CCN(c3cccc(F)c3)CC2)CC1 (racemic) ?
Satisfied

====

Assay: Lipophilicity, log D of the compound at pH 7.4
Conditions: buffer
ASSAY METRIC: logD

The cases that follow already have their logD on record.
CCN(C(=O)Cc1ccc(S(C)(=O)=O)cc1)C1CCN(CCC(c2ccccc2)C2CCN(S(=O)(=O)CC(F)(F)F)CC2)CC1 (centres undefined)    2.2
CCN(C(=O)Cc1ccc(S(C)(=O)=O)cc1)C1CCN(CC[C@@H](c2cc(Cl)cc(Cl)c2)C2CCN(S(C)(=O)=O)CC2)CC1    2.6
CCN(C(=O)Cc1ccc(S(C)(=O)=O)cc1)C1CCN(CC[C@@H](c2ccccc2)C2CCN(S(=O)(=O)C(F)(F)F)CC2)CC1    3.4

Entry CCN(C(=O)Cc1ccc(S(C)(=O)=O)cc1)C1CCN(CCC(c2ccccc2)N2CCN(S(C)(=O)=O)CC2)CC1 (racemic) has what logD?
0.8

====

Molecular target: C-C chemokine receptor type 5 (Homo sapiens)
Assay: Displacement of [125I]MIP-1alpha from human recombinant CCR5 expressed in CHO cells
Assay type: cell-based
For each of the compounds below, state its log10 IC50.
The base-10 logarithm of IC50, taken with IC50 in nM, is what appears here.

As a guide, the following entries are already answered.
CCN(C(=O)Cc1ccc(S(C)(=O)=O)cc1)C1CCN(CCC(c2ccccc2)C2CCN(C)CC2)CC1 (racemic)    2.10
CCN(C(=O)Cc1ccc(S(C)(=O)=O)cc1)C1CCN(CCC(c2ccccc2)C2CCN(S(=O)(=O)CC(F)(F)F)CC2)CC1 (configuration not stated)    0.73
CCN(C(=O)Cc1ccc(S(C)(=O)=O)cc1)C1CCN(CCC(c2ccccc2)N2CCC(C)CC2)CC1 (racemic)    2.53
CCN(C(=O)Cc1ccc(S(C)(=O)=O)cc1)C1CCN(CC[C@@H](c2ccccc2)N2CCN(S(=O)(=O)CC(F)(F)F)CC2)CC1    0.95
CCN(C(=O)Cc1ccc(S(C)(=O)=O)cc1)C1CCN(CC[C@@H](c2ccccc2)C2CCN(S(C)(=O)=O)CC2)CC1    0.04
CCN(C(=O)Cc1ccc(S(C)(=O)=O)cc1)C1CCN(CCC(c2ccccc2)N2CCN(C(C)=O)CC2)CC1 (racemic)    2.36

Attention now turns to another entry.
Report log10 IC50 for CCN(C(=O)Cc1ccc(S(C)(=O)=O)cc1)C1CCN(CC[C@@H](c2ccccc2)N2CCN(S(=O)(=O)C(F)(F)F)CC2)CC1 please.
0.20

====

These records show IC50 for Voltage-gated inwardly rectifying potassium channel KCNH2 (Homo sapiens).
Numbers only, in µM.

Some compounds with recorded IC50:
CCN(C(=O)Cc1ccc(S(C)(=O)=O)cc1)C1CCN(CC[C@@H](c2cccc(OC)c2)C2CCN(S(C)(=O)=O)CC2)CC1    32
CCN(C(=O)Cc1ccc(S(C)(=O)=O)cc1)C1CCN(CC[C@@H](c2ccccc2)C2CCN(S(=O)(=O)C(F)(F)F)CC2)CC1    1.2
CCN(C(=O)Cc1ccc(S(C)(=O)=O)cc1)C1CCN(CC[C@@H](c2cc(Cl)cc(Cl)c2)C2CCN(S(C)(=O)=O)CC2)CC1    6.5

Pending compound:
Requested field: IC50. Item: CCN(C(=O)Cc1ccc(S(C)(=O)=O)cc1)C1CCN(CCC(c2ccccc2)N2CCN(c3ccccc3)CC2)CC1 (racemic)
13

====

Test: Plasma protein binding in human
Type: ADME, cell-free
Conditions: read-out: PPB (converted)
ASSAY METRIC: fraction unbound
One number for each entry.

I'd like to know its fraction unbound. The compound in question is CCN(C(=O)Cc1ccc(S(C)(=O)=O)cc1)C1CCN(CC[C@@H](c2cc(F)cc(F)c2)C2CCN(S(C)(=O)=O)CC2)CC1 [AZD5672]
0.08

====

Test: Apparent permeability from basal to apical side of human Caco2 cells at 100 uM
Format: ADME, cell-based
Conditions: Caco-2
ASSAY METRIC: Papp B→A at 100 µM (×10⁻⁶ cm/s)
Give bare numbers, in ×10⁻⁶ cm/s.

Tell me the measured Papp B→A at 100 µM of CCN(C(=O)Cc1ccc(S(C)(=O)=O)cc1)C1CCN(CC[C@@H](c2cc(F)cc(F)c2)C2CCN(S(C)(=O)=O)CC2)CC1 , please.
11

====

Test: Clearance in female dog at 1 to 2 mg/kg, iv
Type: ADME, organism-based, Canis lupus familiaris
Set-up: dose 1-2 mg/kg, route intravenous
Conditions: in vivo
ASSAY METRIC: clearance (mL/min/kg)
Give bare numbers, in mL/min/kg.

CCN(C(=O)Cc1ccc(S(C)(=O)=O)cc1)C1CCN(CC[C@@H](c2cc(F)cc(F)c2)C2CCN(S(C)(=O)=O)CC2)CC1    22

# context switch: different compound, same clearance
Query: clearance; subject: CCN(C(=O)Cc1ccc(S(C)(=O)=O)cc1)C1CCN(CC[C@@H](c2cc(F)cc(F)c2)N2CCN(S(C)(=O)=O)CC2)CC1
7.5
